# protocol.description: TIMS collisional cross section (CCS, N2) of the lipid ion; higher = larger ion cross section
# settings: sample type: Liver; ionization mode: positive; one isomer drawn
measure: TIMS collisional cross section (Å²)
Give just the numeric value; Å² need not be written.

Provide one value: measured TIMS collisional cross section of CCCCC/C=C\C/C=C\CCCCCCCC(=O)OC[C@@H](COC(=O)CCCCCCC/C=C\CCCCCC)OC(=O)CCCCCCCCCCCCCCCCC [TG 16:1_18:0_18:2] (ion (formula + adduct): [C55H100O6+NH4] 1+)
319.7

Input CCCCC/C=C\CCCCCCCC(=O)O[C@H](COC(=O)CCCCCCCCCCCCC)COC(=O)CCCCCCCCCCCCCCC [TG 14:0_15:1_16:0] (ion (formula + adduct): [C48H90O6+NH4] 1+) , output reported TIMS collisional cross section.
303.1

For the molecule CCCCC/C=C\C/C=C\C/C=C\C/C=C\CCCC(=O)O[C@H](COC(=O)CCCCCC/C=C\C/C=C\C/C=C\CCCCC)COP(=O)(O)OCCN [PE 20:3_20:4@] (ion (formula + adduct): [C45H76NO8P+H] 1+) , give its reported TIMS collisional cross section.
280.9

Provide measured TIMS collisional cross section value, entry: CCCCC/C=C\C/C=C\C/C=C\CCCCC(=O)O[C@H](COC(=O)CCCCCCCCCCCCCCCCC)COP(=O)(O)OCCN [PE 18:0_18:3@] (ion (formula + adduct): [C41H76NO8P+H] 1+)
278.7

Report TIMS collisional cross section for CCCCC/C=C\C/C=C\C/C=C\C/C=C\CCCC(=O)O[C@@H](CO)COC(=O)CCCCCCCCCCCCCCC [DG 16:0_20:4_0:0] (ion (formula + adduct): [C39H68O5+H] 1+)
263.9

Using the record for CCCCC/C=C\C/C=C\CCCCCCCC(=O)O[C@H](COC(=O)CCCCCCC/C=C\CCCCCCCC)COC(=O)CCCCCCCCCCCCCCCCCCCCC [TG 18:1_18:2_22:0] (ion (formula + adduct): [C61H112O6+NH4] 1+) , state its measured TIMS collisional cross section.
338.2

Dear colleague, please send me the reported TIMS collisional cross section for CCCCC/C=C\C/C=C\C/C=C\CCCCCCC(=O)OC[C@@H](COC(=O)CCCCCCCCCCCCCCC)OC(=O)CCCCCCC/C=C\C/C=C\CCCCC [TG 16:0_18:2_20:3] (ion (formula + adduct): [C57H100O6+NH4] 1+) when you can.
322.3

Note TIMS collisional cross section for the molecule shown: CCCCCCC/C=C\CCCCCCCC(=O)OC[C@@H](COC(=O)CCCCCCCCCCCCC)OC(=O)CCCCCCCCCCCCCCC [TG 14:0_16:0_17:1] (ion (formula + adduct): [C50H94O6+NH4] 1+)
309

Determine its reported TIMS collisional cross section: CCCCC/C=C\C/C=C\C/C=C\CCCCCCC(=O)OC[C@@H](COC(=O)CCCCCCC/C=C\CCCCCCCC)OC(=O)CCCCCCC/C=C\CCCCCCCC [TG 18:1_18:1_20:3] (ion (formula + adduct): [C59H104O6+NH4] 1+)
330.2

For the molecule CC/C=C\C/C=C\C/C=C\C/C=C\C/C=C\C/C=C\CCC(=O)OC[C@@H](COC(=O)CCCCCCC/C=C\CCCCCCCC)OC(=O)CCCCCCCCCCC/C=C\CCCCCCCC [TG 18:1_22:1_22:6] (ion (formula + adduct): [C65H110O6+NH4] 1+) , report TIMS collisional cross section.
342.5

// Input: CCCCC/C=C\C/C=C\C/C=C\CCCCCCC(=O)O[C@@H](CO)COC(=O)CCCCCCC/C=C\CCCCCCCC [DG 18:1_20:3_0:0] (ion (formula + adduct): [C41H72O5+NH4] 1+) . Output its TIMS collisional cross section only.
267

Query TIMS collisional cross section for CCCCCCCCCCCCCCCCCCC(=O)OC[C@@H](COC(=O)CCCCCCCCCCCCCCC)OC(=O)CCCCCCCCCCCCCCCCC [TG 16:0_18:0_19:0] (ion (formula + adduct): [C56H108O6+NH4] 1+)
329.3

For the molecule CCCCC/C=C\C/C=C\CCCCCCCC(=O)OC[C@@H](COC(=O)CCCCCCCCCCC)OC(=O)CCCCCCC/C=C\CCCCCC [TG 12:0_16:1_18:2] (ion (formula + adduct): [C49H88O6+NH4] 1+) , give its reported TIMS collisional cross section.
301.1

// fetch TIMS collisional cross section given entry CCCCCCCC/C=C\CCCCCCCC(=O)OC[C@@H](COC(=O)CCCCCCCCCCC)OC(=O)CCCCCCCCCCC [TG 12:0_12:0_18:1] (ion (formula + adduct): [C45H84O6+NH4] 1+)
291.3

Give the value of TIMS collisional cross section reported for the following: CCCCCCCC/C=C\CCCCCCCCCC(=O)OC[C@@H](COC(=O)CCCCCCCCCCCCC)OC(=O)CCCCCCC/C=C\CCCCCCCC [TG 14:0_18:1_20:1] (ion (formula + adduct): [C55H102O6+NH4] 1+)
322.4

Name the recorded TIMS collisional cross section of the item CCCCC/C=C\CCCCCCCC(=O)OC[C@@H](COC(=O)CCCCCCCCCCC)OC(=O)CCCCCCCCCCC [TG 12:0_12:0_15:1] (ion (formula + adduct): [C42H78O6+NH4] 1+) in your answer.
280.4

Entry CC/C=C\C/C=C\C/C=C\C/C=C\C/C=C\C/C=C\CCC(=O)O[C@@H](CO)COC(=O)CCCCCCCCCCCCCCC [DG 16:0_22:6_0:0] (ion (formula + adduct): [C41H68O5+NH4] 1+) needs its TIMS collisional cross section filled in; supply it.
267.7

Please give measured TIMS collisional cross section of the following entry: CC/C=C\C/C=C\C/C=C\C/C=C\C/C=C\C/C=C\CCC(=O)O[C@H](COC(=O)CCCCCCCCCCCCCCCCC)COP(=O)([O-])OCC[N+](C)(C)C [PC 18:0_22:6] (ion (formula + adduct): [C48H84NO8P+H] 1+)
297.9
